Source listed as patent US8163788B2.

Tested on: cytohesin-2
assayDetails: luciferase assay in HeLa-cells (serum response element activation, MAPK path via cytohesin-2)
Assay type: cell-based
cond: compounds 1 μM to 50 μM, read-out: IC50 (luciferase signal)
recordedMetric: IC50 (µM)

INSERT INTO assay_data (compound, recordedmetric, unitlabel, resultmodifier, val) VALUES
  ('COc1nc(-c2ccc3c(c2)OCO3)n(-c2ccc(NC(=O)CSc3ccccc3)cc2)n1', 'IC50', 'µM', '=', 12),
  ('CCOc1nc(-c2ccccc2F)n(-c2ccc(NC(=O)CSc3ccccc3)cc2)n1', 'IC50', 'µM', '=', 5),
  ('O=C(O)[C@H]1CSCN1C(=O)Cc1cccs1', 'IC50', 'µM', '=', 3.5),
  ('O=C(CN(CC1CCCO1)C(=O)Cc1cccs1)N(Cc1ccc(F)cc1)Cc1ccco1 (stereo not shown)', 'IC50', 'µM', '=', 3),
  ('CCOc1nc(-c2cccc(F)c2)n(-c2ccc(NC(=O)Cc3cccs3)cc2)n1', 'IC50', 'µM', '=', 23),
  ('CN(c1cc(Cl)nc(SCc2ccc(C(=O)NCc3ccco3)cc2)n1)C1CCCCC1', 'IC50', 'µM', '=', 5),
  ('CC(C)(C)c1ccc(S(=O)(=O)N(Cc2ccc(OS(C)(=O)=O)cc2)CC2CCCO2)cc1 (stereo not shown) [Control 1, reference compound]', 'IC50', 'µM', '>', 50);
